# target: FGFR1 (UniProt P11362)
# Sequence (P11362 whole entry, looked up): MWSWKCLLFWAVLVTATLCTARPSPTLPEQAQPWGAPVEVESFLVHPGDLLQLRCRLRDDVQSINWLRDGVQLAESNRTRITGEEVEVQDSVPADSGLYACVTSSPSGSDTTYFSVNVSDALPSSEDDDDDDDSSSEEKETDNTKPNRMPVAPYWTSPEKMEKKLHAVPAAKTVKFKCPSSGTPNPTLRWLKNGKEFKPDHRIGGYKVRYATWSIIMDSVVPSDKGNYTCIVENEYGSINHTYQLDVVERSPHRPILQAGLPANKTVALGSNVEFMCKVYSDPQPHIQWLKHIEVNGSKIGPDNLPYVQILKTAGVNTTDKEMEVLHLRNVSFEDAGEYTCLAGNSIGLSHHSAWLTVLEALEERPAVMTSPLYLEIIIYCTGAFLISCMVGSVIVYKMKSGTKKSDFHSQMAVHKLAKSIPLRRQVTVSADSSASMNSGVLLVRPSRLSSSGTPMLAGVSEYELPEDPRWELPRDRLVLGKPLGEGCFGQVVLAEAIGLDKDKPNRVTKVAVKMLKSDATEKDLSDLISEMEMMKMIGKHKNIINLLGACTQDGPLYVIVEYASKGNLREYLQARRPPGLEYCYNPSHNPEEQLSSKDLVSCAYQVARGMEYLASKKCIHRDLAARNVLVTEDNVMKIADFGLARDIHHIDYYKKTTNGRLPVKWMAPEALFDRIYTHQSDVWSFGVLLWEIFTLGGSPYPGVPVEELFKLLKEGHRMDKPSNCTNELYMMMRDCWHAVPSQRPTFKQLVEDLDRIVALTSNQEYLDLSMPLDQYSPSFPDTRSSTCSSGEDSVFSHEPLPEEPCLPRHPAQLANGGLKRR
# assay_name: phosphorylation enrichment, bacterial display (enrichment ratio); higher = better substrate or ligand; peptides without Tyr show the background;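 note: 11-residue human phosphosite peptides and single-mutation variants displayed on the E. coli surface, counted by deep sequencing, each peptide's frequency after selection divided by its frequency in the unselected input library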;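 note: frequency after pTyr selection over input frequency; kinase dosed for 20-30% of maximal phosphorylation in three min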
# phosphorylation enrichment annotations
Respond using a number only.

Solved entries:
primary_sequence: GISDEYHVIRR [GCDH_Y398_H403R]
reported_result: 1.46
--
primary_sequence: QRMGTYGVRAA [ICAM2_Y260]
reported_result: 0.754
--
primary_sequence: NMHSTYAKLAA [SEC22B_Y193]
reported_result: 0.385
--
primary_sequence: RLLVLYPWTQR [HBB_Y36_V35L]
reported_result: 0.886
--
primary_sequence: RKIMGYSIRTI [IDS_Y490_I485R]
reported_result: 0.664
--
primary_sequence: FLKDVYVDSKD [NDUFAF4_Y69]
reported_result: 0.488
--
primary_sequence: MFNPCYGLFEY [NEDD4L_Y680_Y679C]
reported_result: 0.616
--
primary_sequence: HDRNTYEKYLE [TF_Y666_G671E]
reported_result: 0.584
--
primary_sequence: YGCGMYSHLQG [LGR4_Y848_D844G]
reported_result: 1.06
--
primary_sequence: AFLQTYSHEVS [PCDHGA5_Y753]
reported_result: 0.442

q: # return phosphorylation enrichment of GFKVRYATWSI [FGFR1_Y210_YF] (system: FGFR1 (UniProt P11362))
a: 0.463

q: Look up FGFR1 (UniProt P11362) data: phosphorylation enrichment of SIKGKYVTALF [KCNH2_Y611_D609G_YF] , then report it.
a: 0.361

q: Under FGFR1 (UniProt P11362): report phosphorylation enrichment of MASISYDFCRV [BST2_Y6_T4I_YF] .
a: 0.496

q: Enter recorded phosphorylation enrichment with FGFR1 (UniProt P11362) for RRNTYYASIAK [ACADM_Y353] here.
a: 0.536

q: Please respond with reported phosphorylation enrichment (system FGFR1 (UniProt P11362)) for PTTKTYLPHFD [HBA1_Y43_F44L] .
a: 0.508

q: Give reported phosphorylation enrichment for QTLEAYIRCNK [SPAST_Y604_W607C] (FGFR1 (UniProt P11362))
a: 0.559

q: Look up FGFR1 (UniProt P11362) data: phosphorylation enrichment of SILAVYSKDNF [PANK2_Y400_YF] , then report it.
a: 0.662
